What TGI was measured for each of the following?
test system: RPMI-8226 leukemia; assay: NCI tumour cell line growth inhibition, 48 h

compound	measured-target	TGI
C=CC(=O)N1CCN([C@@H](CC2CC2)c2ccc([C@H](C)Nc3ncc4c(n3)N(CC)C(=O)OC4)cc2)CC1	RPMI-8226 leukemia	24.9 µM
CC1=NN(c2ccccc2)C(=O)/C1=C1\SC(c2ccccc2)(c2ccccc2)c2ccccc21	RPMI-8226 leukemia	> 100 µM
CCOc1ccc2c(c1)[n+]([O-])c(-c1ccccc1)c(N)[n+]2[O-]	RPMI-8226 leukemia	> 100 µM

Give TGI for all compounds that follow.
1. CCN(CC)CC(C(=O)Nc1c(C)cccc1C)/C(C)=N\NC(=S)NN (stereo not given)
2. O=C(Nc1ccc(Nc2ccc3c(c2)C(=O)c2ccccc2C3=O)c2c1C(=O)c1ccccc1C2=O)c1ccccc1

> 100 µM
> 100 µM
